Molecular target: histamine H4 receptor (Homo sapiens)
Construct: expressed in transfected cells; host or cells: HEK-293 cells, transient transfection with pCINeo vector; membranes
Experiment: FLIPR Ca2+ assay in HEK-293 cells stably expressing histamine H4 receptor and Gαqi5
Format: cell-based
Conditions: Kb for antagonists and inverse agonists, EC50 for partial agonists; block of histamine-induced Ca2+ increase
MEASUREMENT_KIND: Potency in the FLIPR assay (nM)

{"columns": ["MOLECULE", "ENDPOINT_UNIT", "TEST_RESULT"],
 "data": [
  ["CNC1CN(c2nc(N)nc3c2CCCc2ccccc2-3)C1 [Example 6]", "nM", 9]
]}

P. CN1CCN(c2cc(-c3ccc(C#N)cc3)nc(N)n2)CC1.O=C(O)/C=C\C(=O)O [Example 1]
Q. CN1CCN(c2cc(-c3cccnc3)nc(N)n2)CC1.O=C(O)/C=C\C(=O)O [Example 2]
R. Nc1nc2c(c(N3CCNCC3)n1)CCCc1ccccc1-2 [Example 5]
Lookup: Put the items in sequence by Potency in the FLIPR assay, from largest down. Enter labels, ranked according to the request.
Found: Q, P, R

====

Target: histamine H4 receptor (Homo sapiens, UniProt Q9H3N8)
Construct: expressed in transfected cells; host or cells: HEK-293 cells, transient transfection with pCINeo vector; membranes
Test: 3H-histamine competition binding assay, membranes of transfected HEK-293 cells
Details: displacement of [3H]-histamine, 25° C., 1 h; read-out: Potency in Competition Binding Assay
MEASUREMENT_KIND: Ki (µM)

{"columns": ["COMPOUND", "TEST_RESULT"],
 "data": [
  ["CN1CCN(c2cc(-c3ccc(C#N)cc3)nc(N)n2)CC1.O=C(O)/C=C\\C(=O)O [Example 1, maleate]", 0.035],
  ["CNC1CN(c2nc(N)nc3c2CCCc2ccccc2-3)C1", 0.011]
]}

I. CN1CCN(c2cc(-c3cccnc3)nc(N)n2)CC1.O=C(O)/C=C\C(=O)O [Example 2, maleate]
II. Nc1nc2c(c(N3CCNCC3)n1)CCCc1ccccc1-2
Lookup: Determine, for I and II , which has the greater value of Ki. Provide the label of your selected option as the answer.
Found: I
(I: 0.178 µM, II: 0.08 µM)

====

Target: histamine H4 receptor (Homo sapiens, UniProt Q9H3N8)
Construct: expressed in transfected cells; host or cells: HEK-293 cells, transient transfection with pCINeo vector; membranes
Experiment: 3H-histamine competition binding assay, membranes of transfected HEK-293 cells
MEASUREMENT_KIND: Ki (nM)
Hi! Could you send only the number? It should be in nM, unit omitted.

Lookup: Tell us which Ki value is on record for O=S(=O)(NCCc1c[nH]cn1)NCc1ccc(Cl)c(Cl)c1 [Example 7]
Found: 33
